System: S180 tumor
Assay: Biodistribution in tumor-bearing mice
Assay type: in vivo
Conditions: 120 min, i.v., mice bearing S180 tumor, mean ± SD
TEST_READOUT: Blood (% ID/g)
Write the answer as a number in % ID/g, unit excluded.

For orientation, consider the following solved cases.
* O=C(Cc1ccc(C[N+]#[C][99Tc+]([C]#[N+]Cc2ccc(CC(=O)NC3C(O)OC(CO)C(O)C3O)cc2)([C]#[N+]Cc2ccc(CC(=O)NC3C(O)OC(CO)C(O)C3O)cc2)([C]#[N+]Cc2ccc(CC(=O)NC3C(O)OC(CO)C(O)C3O)cc2)([C]#[N+]Cc2ccc(CC(=O)NC3C(O)OC(CO)C(O)C3O)cc2)[C]#[N+]Cc2ccc(CC(=O)NC3C(O)OC(CO)C(O)C3O)cc2)cc1)NC1C(O)OC(CO)C(O)C1O (stereo not shown) [^99mTc-4-CNMBDG] | 0.64
* O=C(NC1C(O)OC(CO)C(O)C1O)c1cccc(C[N+]#[C][99Tc+]([C]#[N+]Cc2cccc(C(=O)NC3C(O)OC(CO)C(O)C3O)c2)([C]#[N+]Cc2cccc(C(=O)NC3C(O)OC(CO)C(O)C3O)c2)([C]#[N+]Cc2cccc(C(=O)NC3C(O)OC(CO)C(O)C3O)c2)([C]#[N+]Cc2cccc(C(=O)NC3C(O)OC(CO)C(O)C3O)c2)[C]#[N+]Cc2cccc(C(=O)NC3C(O)OC(CO)C(O)C3O)c2)c1 (stereo not shown) [^99mTc-3-CNPEDG] | 0.22
* O=C(NC1C(O)OC(CO)C(O)C1O)c1cccc([N+]#[C][99Tc+]([C]#[N+]c2cccc(C(=O)NC3C(O)OC(CO)C(O)C3O)c2)([C]#[N+]c2cccc(C(=O)NC3C(O)OC(CO)C(O)C3O)c2)([C]#[N+]c2cccc(C(=O)NC3C(O)OC(CO)C(O)C3O)c2)([C]#[N+]c2cccc(C(=O)NC3C(O)OC(CO)C(O)C3O)c2)[C]#[N+]c2cccc(C(=O)NC3C(O)OC(CO)C(O)C3O)c2)c1 (stereo not shown) [^99mTc-3-CNBzDG] | 0.27

Moving on to the next molecule.
Any idea what its Blood is? The molecule is O=C(NC1C(O)OC(CO)C(O)C1O)c1ccc(CC[N+]#[C][99Tc+]([C]#[N+]CCc2ccc(C(=O)NC3C(O)OC(CO)C(O)C3O)cc2)([C]#[N+]CCc2ccc(C(=O)NC3C(O)OC(CO)C(O)C3O)cc2)([C]#[N+]CCc2ccc(C(=O)NC3C(O)OC(CO)C(O)C3O)cc2)([C]#[N+]CCc2ccc(C(=O)NC3C(O)OC(CO)C(O)C3O)cc2)[C]#[N+]CCc2ccc(C(=O)NC3C(O)OC(CO)C(O)C3O)cc2)cc1 (stereo not shown) [^99mTc-4-CNPeDG] 0.10

src = patent US20230263914A1
